- experimental_details: MMV: MTT Cytotoxicity Assay Day 7 pi of Assay #11 (NO washout), U87-CD4-CXCR4 cells, % cell death @ 5mM compound
- Format: toxicity, cell-based
- protocol_conditions: human, u87-cd4-cxcr4, 5000 µM
readout_type: % Cell Death
Hey, just send me the number, nothing else.

{"compound": "Cc1ccnc(NC(c2cccc(OCc3ccccc3)c2)c2ccc3cccnc3c2O)c1 (stereo not given)", "% Cell Death": 27}
{"compound": "COc1ccc(C2C(C(=O)Nc3cccc(OC)c3)c3ccccc3C(=O)N2C2CCCCC2)cc1 (stereo not given)", "% Cell Death": 37}
{"compound": "Cc1cc(Nc2ccc(OCc3ccccc3)cc2)nc2cc(O)ccc12", "% Cell Death": -7}
{"compound": "Cc1cc(NCCN2CCCCC2)c2ccc3ccccc3c2n1", "% Cell Death": 5}
{"compound": "CCOC(=O)c1cnc2ccc(OC)cc2c1NCc1ccccc1", "% Cell Death": 46}

Prompt: Give the measured % Cell Death of Cl.Clc1cc(Br)ccc1-c1ccc(CNCC2CCNCC2)o1 .
Response: -60

Prompt: Give the measured % Cell Death of COc1ccc(Br)cc1C1Nc2ccc3ccccc3c2C2=C1C(=O)CC(c1ccccc1)C2 (stereo not given) .
Response: -37

Prompt: Give the measured % Cell Death of CCC(c1ccccc1)c1nn2c(-c3cccs3)nnc2s1 (stereo not given) .
Response: 73

Prompt: Give the measured % Cell Death of CCN(CC)CCNc1ncnc2c1[nH]c1ccc(Br)cc12 .
Response: -18
